target-under-test: GLP-1R (Homo sapiens, UniProt P43220)
Construct: host or cells: GLP-1R CRE-bla CHO-K1 cells
Sequence (P43220 24-463): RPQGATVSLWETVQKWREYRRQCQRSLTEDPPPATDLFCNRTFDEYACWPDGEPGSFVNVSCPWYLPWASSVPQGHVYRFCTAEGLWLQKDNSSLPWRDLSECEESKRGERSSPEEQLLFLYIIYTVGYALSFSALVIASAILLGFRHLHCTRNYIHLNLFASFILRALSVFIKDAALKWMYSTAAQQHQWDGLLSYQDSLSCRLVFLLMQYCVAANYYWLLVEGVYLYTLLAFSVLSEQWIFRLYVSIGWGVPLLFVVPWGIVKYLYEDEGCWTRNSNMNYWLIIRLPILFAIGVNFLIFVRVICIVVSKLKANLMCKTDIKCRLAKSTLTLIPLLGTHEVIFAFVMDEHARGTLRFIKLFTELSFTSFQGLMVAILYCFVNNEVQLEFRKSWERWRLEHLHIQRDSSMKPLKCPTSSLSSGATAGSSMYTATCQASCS
Sequence (P01275 100-127 partner limits assumed): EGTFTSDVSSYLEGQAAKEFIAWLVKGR
experiment-description: EC20 GLP-1(9-36) PAM cAMP assay: dose response of compound in the presence of fixed concentration of GLP-1(9-36)
Format: cell-based
measurement-context: dose response of compound in presence of fixed concentration of GLP-1(9-36), GLP-1R CRE-bla CHO-K1 cells, read-out: EC20 GLP-1(9-36) PAM EC50
pEC50: −log10 of the molar value.
quantity-name: pEC50

Below, each entry is followed by its recorded pEC50 result.
                                   compound        result
0  CCCCCCCOc1ccc2nc(-c3ccc(C[C@H](NC(=O)c4ccc(C(C)(C)C)cc4)C(=O)N4CC[C@H](C(=O)O)C4)cc3)ncc2c1  5.00 to 5.30
1  CCCCCCCOc1ccc(-c2cnc(-c3ccc(C[C@H](NC(=O)c4ccc(O)c(F)c4)C(=O)N4CC(C(=O)O)C4)cc3)nc2)cc1  5.60 to 6.10
2  CCCCCCCOc1ccc(-c2cnc(-c3ccc(C[C@H](NC(=O)c4ccc(C(C)(C)C)cc4)C(=O)N[C@@H](CC(=O)O)C(=O)NCCOC)cc3)nc2)cc1  5.60 to 6.10
3  CCCCCC(=O)c1ccc(-c2cnc(-c3ccc(C[C@H](NC(=O)c4ccc(C(C)(C)C)s4)C(=O)N4CC[C@H](C(=O)O)C4)cc3)nc2)cc1  5.30 to 5.60
4  C[C@@H](NC(=O)[C@H](Cc1ccc(-c2ncc(-c3ccc(Oc4ccccc4F)nc3)cn2)cc1)NC(=O)c1ccc(C(C)(C)C)s1)C(=O)O  5.30 to 5.60

Report pEC50 for CCCCCc1ccc(-c2cnc(-c3ccc(C[C@H](NC(=O)c4ccc(C(C)(C)C)cc4)C(=O)NCCC(=O)O)cc3)nc2)cc1 please.
5.30 to 5.60

Report pEC50 for CCCCCCCOc1ccc(-c2cnc(-c3ccc(C[C@H](NC(=O)c4ccc(C(C)(C)C)cc4OCC)C(=O)N[C@H](C)C(=O)O)cc3)nc2)cc1 please.
5.30 to 5.60

Report pEC50 for CCCCCCCOc1ccc(-c2cnc(-c3ccc(C[C@H](NC(=O)c4ccc(C(C)(C)C)s4)C(=O)N4C[C@@H](F)C[C@@H]4C(=O)O)cc3)nc2)cc1 please.
5.30 to 5.60

Report pEC50 for C[C@@H](NC(=O)[C@H](Cc1ccc(-c2ncc(/C=C\CCCc3ccccc3)cn2)cc1)NC(=O)c1ccc(C(C)(C)C)s1)C(=O)O please.
5.00 to 5.30

Report pEC50 for C[C@@H](NC(=O)[C@H](Cc1ccc(-c2ncc(-c3ccc(C4CCCC4)cc3)cn2)cc1)NC(=O)c1ccc(C(C)(C)C)s1)C(=O)O please.
5.60 to 6.10

Report pEC50 for CCCCCCCOc1ccc(-c2cnc(-c3ccc(C[C@H](NC(=O)c4ccc(C(C)(C)C)s4)C(=O)NC(C(=O)O)C(O)c4ccccc4)cc3)nc2)cc1 (stereo partly drawn) please.
> 6.10

Report pEC50 for CC[C@H]1CC[C@H](c2ccc(-c3cnc(-c4ccc(C[C@H](NC(=O)c5ccc(C(C)(C)C)cc5)C(=O)N5CC(C(=O)O)C5)cc4)nc3)cc2)CC1 please.
> 6.10

* * *

target-under-test: GLP-1R (Homo sapiens)
Construct: host or cells: GLP-1R CRE-bla CHO-K1 cells
experiment-description: EC20 GLP-1(9-36) PAM cAMP assay: dose response of compound in the presence of fixed concentration of GLP-1(9-36)
Assay type: cell-based
measurement-context: dose response of compound in presence of fixed concentration of GLP-1(9-36), GLP-1R CRE-bla CHO-K1 cells, read-out: EC20 GLP-1(9-36) PAM EC50
quantity-name: EC50

Below, each entry is followed by its recorded EC50 result.
molecule	EC50
C[C@@H](NC(=O)[C@H](Cc1ccc(-c2ncc(-c3ccc(N4CCCCC4)cc3)cn2)cc1)NC(=O)c1ccc(C(C)(C)C)s1)C(=O)O	2500 to 5000 nM
COc1cc(-c2cnc(-c3ccc(C[C@H](NC(=O)c4ccc(C(C)(C)C)s4)C(=O)N[C@H](C)C(=O)O)cc3)nc2)ccc1OCc1ccccc1	2500 to 5000 nM

Recall the recorded EC50 for C[C@@H](NC(=O)[C@H](Cc1ccc(-c2ncc(-c3ccc(OCCC4CCCCC4)cc3)cn2)cc1)NC(=O)c1ccc(C(C)(C)C)cc1)C(=O)O with GLP-1R (Homo sapiens) and state it.
800 to 2500 nM

Recall the recorded EC50 for CC(C)(C)c1ccc(-c2cnc(-c3ccc(C[C@H](NC(=O)c4ccc(C(C)(C)C)s4)C(=O)N4CC[C@H](C(=O)O)C4)cc3)nc2)cc1 with GLP-1R (Homo sapiens) and state it.
800 to 2500 nM

Recall the recorded EC50 for CCCCCCCOc1ccc(-c2cnc(-c3ccc(C[C@H](NC(=O)c4ccc(Cc5ccccc5)cc4)C(=O)N[C@H](C)C(=O)O)cc3)nc2)cc1 with GLP-1R (Homo sapiens) and state it.
< 800 nM

Recall the recorded EC50 for CC(C)(C)c1ccc(C(=O)N[C@@H](Cc2ccc(-c3ncc(-c4ccc(OC5CCCCC5)cc4)cn3)cc2)C(=O)NC(C(=O)O)C(O)c2ccccc2)s1 (some centres unmarked) with GLP-1R (Homo sapiens) and state it.
5000 to 10000 nM

Recall the recorded EC50 for CCOCCCCOc1ccc(-c2cnc(-c3ccc(C[C@H](NC(=O)c4ccc(C(C)(C)C)cc4)C(=O)NCCC(=O)O)cc3)nc2)cc1 with GLP-1R (Homo sapiens) and state it.
800 to 2500 nM

Recall the recorded EC50 for CCCCCCCOc1ccc(-c2cnc(-c3ccc(C[C@H](NC(=O)c4ccc(C(C)(C)C)s4)C(=O)NC(C(=O)O)C(O)c4cscn4)cc3)nc2)cc1 (some centres unmarked) with GLP-1R (Homo sapiens) and state it.
5000 to 10000 nM

Recall the recorded EC50 for CCCCCCCOc1ccc(-c2cnc(-c3ccc(C[C@H](NC(=O)c4ccc(C(C)(C)C)s4)C(=O)N[C@H](Cc4ccccc4)C(=O)O)cc3)nc2)cc1 with GLP-1R (Homo sapiens) and state it.
< 800 nM

Recall the recorded EC50 for CCCCCCCOc1ccc(-c2cnc(-c3ccc(C[C@H](NC(=O)c4ccc(C(C)(C)C)s4)C(=O)N[C@H](C(=O)O)[C@@H](C)c4ccccc4)cc3)nc2)cc1 with GLP-1R (Homo sapiens) and state it.
2500 to 5000 nM

Recall the recorded EC50 for Cc1cccc(NC(=O)c2cccc(-c3cnc(-c4ccc(C[C@H](NC(=O)c5ccc(C(C)(C)C)s5)C(=O)N[C@H](C)C(=O)O)cc4)nc3)c2)c1C with GLP-1R (Homo sapiens) and state it.
800 to 2500 nM

* * *

target-under-test: GLP-1R (Homo sapiens)
Construct: host or cells: GLP-1R CRE-bla CHO-K1 cells
experiment-description: EC20 GLP-1(9-36) PAM cAMP assay: dose response of compound in the presence of fixed concentration of GLP-1(9-36)
Assay type: cell-based
measurement-context: dose response of compound in presence of fixed concentration of GLP-1(9-36), GLP-1R CRE-bla CHO-K1 cells, read-out: EC20 GLP-1(9-36) PAM EC50
pEC50: −log10 of the molar value.
quantity-name: pEC50

Below, each entry is followed by its recorded pEC50 result.
molecule	quantity-name	result
CCCCCCCOc1ccc2nc(-c3ccc(C[C@H](NC(=O)c4ccc(C(C)(C)C)cc4)C(=O)N4CC[C@H](C(=O)O)C4)cc3)ccc2c1 [Compound 807]	pEC50	5.00 to 5.30
COc1ccc(-c2cnc(-c3ccc(C[C@H](NC(=O)c4ccc(C(C)(C)C)s4)C(=O)N[C@H](C)C(=O)O)cc3)nc2)c(F)c1OC1CCCC1 [Compound 1019]	pEC50	5.30 to 5.60
CCCCCCCOc1ccc(-c2cnc(-c3ccc(C[C@H](NC(=O)c4ccc(C(C)(C)C)s4)C(=O)NC4CNC4)cc3)nc2)cc1 [Compound 985]	pEC50	5.30 to 5.60
CCCCCCCOc1ccc(-c2cnc(-c3ccc(C[C@H](NC(=O)c4ccc(C(C)(C)C)s4)C(=O)NC(C(=O)O)C(O)C(F)(F)F)cc3)nc2)cc1 (stereo partly drawn) [Compound 882]	pEC50	5.60 to 6.10
CCCCCCCOc1ccc(-c2cnc(-c3ccc(C[C@H](NC(=O)c4cnn(C(C)(C)C)c4)C(=O)N4CC(C(=O)O)C4)cc3)nc2)cc1 [Compound 1099]	pEC50	5.60 to 6.10

Report pEC50 for CCCCCCCOc1ccc(-c2cnc(-c3ccc(C[C@H](NC(=O)c4ccc(C(C)(C)C)s4)C(=O)N[C@@H](C(=O)O)[C@@H](C)O)cc3)nc2)cc1 [Compound 659] please.
> 6.10

Origin of measurements: patent US10034886B2
